Provenance of the data: the RNAGym collection of RNA variant scans (doi:10.7554/elife.80360)

B1: HDV Ribozyme (parent)
chain: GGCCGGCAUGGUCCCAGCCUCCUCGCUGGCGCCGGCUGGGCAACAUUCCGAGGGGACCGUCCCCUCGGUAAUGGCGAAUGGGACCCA

Variants of: B1
assay-overview: self-cleavage, relative activity (ratio to wild type); higher = more cleavage; co-transcriptional
quantity: self-cleavage

variant="C48U U72A" measured_result=0.855
variant="G34U C61A" measured_result=0.0608
variant="U27G G52U" measured_result=0.872
variant="C49G C63U" measured_result=0.815
variant="C15A G17U" measured_result=0.252
variant="U12C G54A" measured_result=0.862
variant="G38C U60C" measured_result=0.231
variant="C36G A71U" measured_result=0.095
variant="A43G A83U" measured_result=0.266
variant="C19G U23C" measured_result=0
variant="A16U U23A" measured_result=0.739
variant="C49A G52C" measured_result=0.573
variant="U12C C19A" measured_result=0.0361
variant="U27C U46A" measured_result=0.529
variant="A8C G59U" measured_result=0.804
variant="C24G C84A" measured_result=0.123
variant="G6C G17U" measured_result=0.237
variant="C4A C63U" measured_result=0.344
variant="A77G G80A" measured_result=0.242
variant="C19G U27G" measured_result=0
variant="U20A C75A" measured_result=0.0923
variant="A8G C32U" measured_result=0.609
variant="A16U G17A" measured_result=0.712
variant="G38A G54C" measured_result=0.237
variant="G52A C84G" measured_result=0.764
variant="U12G U27C" measured_result=0.776
variant="A43C G76A" measured_result=0.554
variant="C30U A77U" measured_result=0.215
variant="U47G C58U" measured_result=0.942
variant="C14G G28U" measured_result=0.107
variant="C26G C36U" measured_result=0.529
variant="U72G U79G" measured_result=0.332
variant="U9G C49G" measured_result=0.886
variant="A51C G67C" measured_result=0.886
variant="U23G G73C" measured_result=0.0773
variant="A16U G38U" measured_result=0.253
variant="U20G G81C" measured_result=0.095
variant="U12G G40U" measured_result=0.655
variant="G35C C41A" measured_result=0.237
variant="C61G A77U" measured_result=0.394
variant="C4A C30U" measured_result=0.116
variant="C3U C21G" measured_result=0.0723
variant="G17U C85A" measured_result=0.538
variant="U60C G80C" measured_result=0.125
variant="C24A U69G" measured_result=0.623
variant="U37A C62U" measured_result=0.104
